TGI values by entry
tested on: KM12 colon; experiment: NCI tumour cell line growth inhibition, 48 h
Parameter Measured: TGI

- Molecule: "COc1ccc([C@H](CC(=O)O)N2CCN(CCCc3ccc4c(n3)NCCC4)C2=O)cn1"
  Observed Result: "> 100 µM"
- Molecule: "c1ccc(-c2nn3c(c2-c2ccnc4cc(OCCN5CCOCC5)ccc24)CCC3)nc1"
  Observed Result: "> 100 µM"
- Molecule: "O=S(=O)(O)O"
  Observed Result: "2150 µM"
- Molecule: "O=P1(N2CCOCC2)OCCO1"
  Observed Result: "> 100 µM"
- Molecule: "COc1ccc(-c2cc(=O)n(-c3nc4ccccc4[nH]3)[nH]2)cc1OC"
  Observed Result: "> 100 µM"
- Molecule: "COC(=O)C1CC2(C)C=CC1N(C(=O)OCc1ccccc1)C2 (configuration not stated)"
  Observed Result: "> 100 µM"
- Molecule: "Clc1sc(Cl)c2c1[C@@H](Cl)C[C@@H]2Cl"
  Observed Result: "> 100 µM"
- Molecule: "OC1(c2ccccc2)C2CC=CC2C1(c1ccccc1)c1ccccc1 (configuration not stated)"
  Observed Result: "> 100 µM"
- Molecule: "O=[N+]([O-])c1cccc(/C=N/NC2=CS(=O)(=O)C=C2)c1"
  Observed Result: "> 100 µM"
- Molecule: "Cc1cc2c(c(C(N)=O)c1C)-c1cccc(F)c1C2=O"
  Observed Result: "> 100 µM"
- Molecule: "COC(C)(C)[C@@H](O)[C@H](O)C[C@H](C)C1=C2CC[C@@H]3[C@@]4(C)CC[C@@H](OC(C)=O)C(C)(C)[C@@H]4C[C@@H](OC4OC(COC(C)=O)C(O)C(O)C4O)[C@@]3(C)[C@]2(C)CC1 (some centres not stated)"
  Observed Result: "18.9 µM"
- Molecule: "NCCCN(CCCCN(CCCN)C(=O)OCc1ccccc1)C(=O)OCc1ccccc1"
  Observed Result: "> 100 µM"
- Molecule: "C#CC[C@@]12CC(=O)C[C@@H]1CCC1(C2)OCCO1 (tested in a mixture with another compound)"
  Observed Result: "> 100 µM"
- Molecule: "COC(=O)c1ccccc1C1CN=NC12Cc1c(ccc3c1CCC3)C2=O (configuration not stated)"
  Observed Result: "> 100 µM"
- Molecule: "COc1ccccc1N=Nc1c(-c2ccccc2)nn(C(=O)CC(=O)Nc2cccc(C)c2)c1-c1ccccc1"
  Observed Result: "> 100 µM"
- Molecule: "O=C(/C(=C(/O)c1ccccc1)c1nc2ccccc2sc1=O)c1ccccc1"
  Observed Result: "> 100 µM"
- Molecule: "O=C1NC(=O)c2ccccc2/C1=C/c1ccc2c(c1)OCO2"
  Observed Result: "41 µM"
- Molecule: "COc1ccc(C(=O)Cn2c(C(=O)c3ccccc3)nc3ccccc32)cc1"
  Observed Result: "> 100 µM"
- Molecule: "CCn1c(=O)c2nc(SC)sc2n(-c2ccc(C)cc2)c1=O"
  Observed Result: "> 100 µM"
- Molecule: "COc1cc2c(cc1OC)-c1ncc3c(OC)ccc(OC)c3c1C2"
  Observed Result: "83.7 µM"
- Molecule: "CC(C(=O)OCc1ccccc1)N(Cc1ccccc1)Cc1ccccc1 (configuration not stated)"
  Observed Result: "> 100 µM"
- Molecule: "CCO/C=C1\\N=C(c2ccc(Cl)c(Cl)c2)OC1=O"
  Observed Result: "> 100 µM"
- Molecule: "COC(=O)c1c2c(c(C)[n+]([O-])c1C)C(=O)C=C(NCc1ccccc1)C2=O"
  Observed Result: "3.34 µM"
- Molecule: "COc1ccc2c(c1)/C(=C\\c1ccncc1)C(=O)N2"
  Observed Result: "24 µM"
- Molecule: "COc1cc2ccc(C(=O)NCCCNC(=O)c3ccc4cc(OC)c(OC)cc4c3)cc2cc1OC"
  Observed Result: "> 100 µM"
- Molecule: "CC(C)C1CO[C@]2(C)CCC(=O)N12 (some centres not stated)"
  Observed Result: "> 100 µM"
- Molecule: "CC(=O)O[C@H]1CC[C@@]2(C)C(=CC[C@@H]3[C@@H]2CC[C@]2(C)C(=N/O)/C(=C\\c4ccccc4)C[C@@H]32)C1"
  Observed Result: "10.6 µM"
